Tested on: Immature castrated male Sprague Dawley rats; ventral prostate and seminal vesicle
Test: Ventral Prostate and Seminal Vesicle Weight In Vivo Assay (antagonist activity, percent inhibition of testosterone-enhanced tissue weights)
Design: species or system rat
Details: Rattus norvegicus, 120 h, seminal vesicle wet weight, compound oral once daily for five days with testosterone propionate 2 mg/kg s.c., classes defined at 30 mg/kg, read-out: Inhibition of seminal vesicle (non-weight seminal vesicle weight, mg)
PARAMETER: inhibition in vivo at 30 mg/kg

Answered cases to consult:
>>> recorded_value("CC12CNC(=O)N1C(=O)N(c1ccc(Cl)c(C(F)(F)F)c1)C2=O (stereo not shown)")
"≥ 30%"
>>> recorded_value("CC12COC(=O)N1C(=O)N(c1ccc(Cl)c(C(F)(F)F)c1)C2=O (stereo not shown)")
"5 to 30%"

Asked: Requested read-out: inhibition in vivo at 30 mg/kg. Entry: `C[C@@]12CC(C(F)(F)F)=NN1C(=O)N(c1ccc(C#N)c(C(F)(F)F)c1)C2=O`
Given back: 5 to 30%

Asked: Item: CCOC(=O)C1=NN2C(=O)N(c3ccc(C#N)c(C(F)(F)F)c3)C(=O)C2(C)C1 (stereo not shown)
Given back: 5 to 30%

Asked: Same read-out for CCOC(=O)C1=NN2C(=O)N(c3ccc([N+](=O)[O-])c(C(F)(F)F)c3)C(=O)C2(C)C1 (stereo not shown) ?
Given back: 5 to 30%

Asked: And then `C[C@]12CC(C(F)(F)F)=NN1C(=O)N(c1ccc(C#N)c(C(F)(F)F)c1)C2=O` , what is it?
Given back: 5 to 30%

Asked: Same again, this time with CC12CNC(=O)N1C(=O)N(c1ccc(C#N)c(C(F)(F)F)c1)C2=O (stereo not shown)
Given back: ≥ 30%

Asked: Item: CCOC(=O)C1=NN2C(=O)C(=O)N(c3ccc(C#N)c(C(F)(F)F)c3)C(=O)C2(C)C1 (stereo not shown)
Given back: 5 to 30%

Asked: Now give it for CN1CC2(C)C(=O)N(c3ccc(Cl)c(C(F)(F)F)c3)C(=O)N2C1=O (stereo not shown) too.
Given back: ≥ 30%

Asked: Moving on to the next compound: CC12CC=NN1C(=O)N(c1ccc(C#N)c(C(F)(F)F)c1)C2=O (stereo not shown)
Given back: 5 to 30%

Asked: What do you have for CC12CC(C(F)(F)F)=NN1C(=O)N(c1ccc(C#N)c(C(F)(F)F)c1)C2=O (stereo not shown) ?
Given back: 5 to 30%

Asked: Follow-up entry: C[C@@]12CC(C(F)(F)F)=NN1[S+]([O-])N(c1ccc(C#N)c(C(F)(F)F)c1)C2=O (stereo partly shown)
Given back: 5 to 30%

Asked: Input `C[C@@]12CC(C(F)(F)F)=NN1S(=O)(=O)N(c1ccc(C#N)c(C(F)(F)F)c1)C2=O`
Given back: 5 to 30%

* * *

Test system: Immature castrated male Sprague Dawley rats; ventral prostate and levator ani
Experiment: Ventral Prostate and Levator Ani Weight In Vivo Assay (agonist activity, percent stimulation of tissue weight)
Design: species or system rat
Conditions: Rattus norvegicus, 120 h, levator ani wet weight, once daily for five days, oral, vehicle = 0%, testosterone alone = 100%, classes defined at 30 mg/kg, read-out: % levator ani Stimulation
PARAMETER: change in vivo at 30 mg/kg

>>> recorded_value("CC12CC(C(F)(F)F)=NN1C(=O)N(c1ccc(C#N)c(C(F)(F)F)c1)C2=O (stereo not shown)")
"≥ 30%"

Asked: Returns the measured change in vivo at 30 mg/kg for the input compound. Input: `C[C@@]12CC(C(F)(F)F)=NN1S(=O)(=O)N(c1ccc(C#N)c(C(F)(F)F)c1)C2=O`
Given back: ≥ 30%

Asked: Also CCOC(=O)C1=NN2C(=O)C(=O)N(c3ccc(C#N)c(C(F)(F)F)c3)C(=O)C2(C)C1 (stereo not shown) ?
Given back: 5 to 30%

Asked: Next: C[C@@]12CC(C(F)(F)F)=NN1[S+]([O-])N(c1ccc(C#N)c(C(F)(F)F)c1)C2=O (stereo partly shown)
Given back: ≥ 30%

* * *

System: Immature castrated male Sprague Dawley rats; ventral prostate and levator ani
Assay: Ventral Prostate and Levator Ani Weight In Vivo Assay (agonist activity, percent stimulation of tissue weight)
Parameters: species or system rat
Conditions: Rattus norvegicus, 120 h, levator ani wet weight, once daily for five days, oral, vehicle = 0%, testosterone alone = 100%, classes defined at 30 mg/kg, read-out: % levator ani Stimulation
PARAMETER: change in vivo at 30 mg/kg

Some solved cases for reference:
>>> recorded_value("C[C@@]12CC(C(F)(F)F)=NN1C(=O)N(c1ccc(C#N)c(C(F)(F)F)c1)C2=O")
"≥ 30%"
>>> recorded_value("C[C@]12CC(C(F)(F)F)=NN1C(=O)N(c1ccc(C#N)c(C(F)(F)F)c1)C2=O")
"≥ 30%"

Please look at the following compound next.
Asked: Suppose we examine the compound CC(=O)Nc1ccc(C2=NN3C(=O)N(c4ccc(C#N)c(C(F)(F)F)c4)C(=O)C3(C)C2)cc1 (stereo not drawn) ; what change in vivo at 30 mg/kg value has been reported?
Given back: 5 to 30%

Values from patent US8097730B2
